- EXPERIMENTAL PROTOCOL: Mouse pharmacokinetic (PK) studies, snapshot format
- Format: in vivo
- TEST SETTINGS: plasma, po, 20 mg/kg, 20 mg/kg in 0.5% MC/0.5% TW80 suspension vehicle, read-out: AUC0-24 h
REPORTED METRIC: AUC(0-t) (µM·h)
Write down the numeric answer in µM·h and omit the unit.

Documented AUC(0-t) of CCC(C)n1ncn(-c2ccc(N3CCN(c4ccc(OC[C@@H]5CO[C@@](Cc6ccnnc6)(c6ccc(Cl)cc6Cl)O5)cc4)CC3)cc2)c1=O (stereo partly shown) : 2.21

====

Recorded MIC90 for the following molecules
- Test system: Candida albicans (ATCC 10231)
- EXPERIMENTAL PROTOCOL: Candida albicans anti-fungal MIC potency determination
- Assay type: cell-based
- TEST SETTINGS: ATCC10231, 24 h, read-out: C. Albicans MIC90 at 24 h

{"MOLECULE": "CCC(C)n1ncn(-c2ccc(N3CCN(c4ccc(OC[C@@H]5CO[C@@](CCCn6cncn6)(c6ccc(Cl)cc6Cl)O5)cc4)CC3)cc2)c1=O (stereo partly drawn)", "EXPERIMENTAL VALUE": "> 100 µM"}
{"MOLECULE": "CCC(C)n1ncn(-c2ccc(N3CCN(c4ccc(OC[C@@H]5CO[C@@](CCn6cncn6)(c6ccc(Cl)cc6Cl)O5)cc4)CC3)cc2)c1=O (stereo partly drawn)", "EXPERIMENTAL VALUE": "0.781 µM"}
{"MOLECULE": "CCC(C)n1ncn(-c2ccc(N3CCN(c4ccc(OC[C@@H]5CO[C@@](Cn6nccn6)(c6ccc(Cl)c(Cl)c6)O5)cc4)CC3)cc2)c1=O (stereo partly drawn)", "EXPERIMENTAL VALUE": "> 100 µM"}
{"MOLECULE": "CCC(C)n1ncn(-c2ccc(N3CCN(c4ccc(OC[C@@H]5CO[C@@](Cn6ccnc6)(c6ccc(Cl)cc6Cl)O5)cc4)CC3)cc2)c1=O (stereo partly drawn)", "EXPERIMENTAL VALUE": "0.195 µM"}
{"MOLECULE": "CCC(C)n1ncn(-c2ccc(N3CCN(c4ccc(OC[C@@H]5CO[C@@](Cn6nccn6)(c6ccc(Cl)cc6Cl)O5)c(C#N)c4)CC3)cc2)c1=O (stereo partly drawn)", "EXPERIMENTAL VALUE": "> 100 µM"}

Please look at the following molecule next.
The recorded MIC90 for entry CCC(C)n1ncn(-c2ccc(N3CCN(c4ccc(OC[C@@H]5CO[C@@](Cc6ccncc6)(c6ccc(Cl)cc6Cl)O5)cc4)CC3)cc2)c1=O (stereo partly drawn) equals > 100 µM
